List of self-cleavage values.
B1: CPEB3 Ribozyme (parent)
chain: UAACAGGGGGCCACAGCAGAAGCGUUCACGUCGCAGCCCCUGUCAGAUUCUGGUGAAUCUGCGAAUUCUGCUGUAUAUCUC

Variants of: B1
Assay: self-cleavage, relative activity (ratio to wild type); higher = more cleavage; in vitro, sequencing

Look over these answered cases.
ordered_residues="UAACAGGGGGCCACAGCCGAAGCGUUCACGUCGCAGCCCCUGUCAGAAUCUGGUGAAUCUGCGAAUUCUGCUGUAUAUCUC [A18C U48A]" readout_name=self-cleavage measured=0.2
ordered_residues="UAACAGGGGGCCACAUCAGAAGCGUUCACGUCGCAGCCCCUGUCAGAUUCUGGUGAAUCUGCGAAUUCUGCUGUAUAUCCC [G16U U80C]" readout_name=self-cleavage measured=0.7
ordered_residues="UAACAGGGGGCCACAGCAGAAGCGUCCACGUCGCAGCCCCUGUCAGAUUCUGGUGAAUCUGCGAAUUUUGCUGUAUAUCUC [U26C C68U]" readout_name=self-cleavage measured=0.5

Can you look up the measured self-cleavage of UAACAGGGGGCCACAGCAGAAGCGUCCAGGUCGCAGCCCCUGUCAGAUUCUGGUGAAUCUGCGAAUUCUGCUGUAUAUCUC [U26C C29G] for me?
0.35

Can you look up the measured self-cleavage of UAACAGGGGGCCACAGCAGAAGCGUUCACGUCGCAGCGCCUGUCAGAUUCUGGUGAAUCUGCGAAUUCUGCUGUGUAUCUC [C38G A75G] for me?
0.27

Can you look up the measured self-cleavage of UAACAGGGGGCCACAGCAGAAGCGUUCACGUCGCAGCCACUGUCAGCUUCUGGUGAAUCUGCGAAUUCUGCUGUAUAUCUC [C39A A47C] for me?
0.2

Can you look up the measured self-cleavage of UAACAGGGGGCCACAGCAGAAGCGUUCACGUCGCAGCCCCUGUCGGAUUCUGGUGAAUCUGCGAAUUAUGCUGUAUAUCUC [A45G C68A] for me?
0.18
